# viability at 48 h, 2.5 µM per entry
Experiment: Cytotoxicity against mouse 3T3-L1 cells assessed as cell viability at 2.5 uM incubated for 48 hrs by CCK-8 assay relative to control
Type: toxicity, cell-based
Settings: read-out: Activity
experimental.endpoint: viability at 48 h, 2.5 µM

[[record]]
molecule = "COc1ccc(C[C@@H]2c3cc(Oc4cc(C[C@@H]5c6cc(OC)c(OC)cc6CCN5C)ccc4O)c(OC)cc3CCN2C)cc1 [NEFERINE]"
experimental_endpoint = "viability at 48 h, 2.5 µM"
meas_value = "> 80%"

[[record]]
molecule = "C=C(c1ccc(O)c(Oc2cc3c(cc2OC)CCN(C)[C@@H]3Cc2ccc(OC)cc2)c1)[C@@H]1c2cc(O)c(OC)cc2CCN1C"
experimental_endpoint = "viability at 48 h, 2.5 µM"
meas_value = "> 80%"

[[record]]
molecule = "COc1ccc(C[C@@H]2c3cc(Oc4cc(C[C@@H]5c6cc(O)c(OC)cc6CCN5C)ccc4O)c(OC)cc3CCN2C)cc1 [ISOLIENSININE]"
experimental_endpoint = "viability at 48 h, 2.5 µM"
meas_value = "> 80%"


###

Assay: Cytotoxicity against mouse 3T3-L1 cells transfected with Lenti-PPARgamma-Luc reporter assessed as cell viability at 7.5 uM incubated for 48 hrs by CCK-8 assay relative to control
Type: toxicity, cell-based
Settings: read-out: Activity
experimental.endpoint: viability at 48 h, 7.5 µM

[[record]]
smiles_entry = "C=C(c1ccc(O)c(Oc2cc3c(cc2OC)CCN(C)[C@@H]3Cc2ccc(OC)cc2)c1)[C@H]1c2cc(OC)c(OC)cc2CCN1C"
meas_value = "< 80%"

[[record]]
smiles_entry = "C=C(c1ccc(O)c(Oc2cc3c(cc2OC)CCN(C)[C@@H]3Cc2ccc(OC)cc2)c1)[C@@H]1c2cc(OC)c(OC)cc2CCN1C"
meas_value = "> 80%"

[[record]]
smiles_entry = "C=C(c1ccc(O)c(Oc2cc3c(cc2OC)CCN(C)[C@@H]3Cc2ccc(OC)cc2)c1)[C@@H]1c2cc(O)c(OC)cc2CCN1C"
meas_value = "> 80%"

[[record]]
smiles_entry = "COc1ccc(C[C@@H]2c3cc(Oc4cc(C[C@@H]5c6cc(O)c(OC)cc6CCN5C)ccc4O)c(OC)cc3CCN2C)cc1"
meas_value = "> 80%"

[[record]]
smiles_entry = "C=C(c1ccc(OC)cc1)[C@@H]1c2cc(Oc3cc(C[C@H]4c5cc(OC)c(OC)cc5CCN4C)ccc3O)c(OC)cc2CCN1C"
meas_value = "> 80%"

[[record]]
smiles_entry = "COc1ccc(C[C@@H]2c3cc(Oc4cc(/C=C5\\CN(C)CCc6cc(OC)c(OC)cc65)ccc4O)c(OC)cc3CCN2C)cc1"
meas_value = "> 80%"

[[record]]
smiles_entry = "C=C(c1ccc(O)c(Oc2cc3c(cc2OC)CCN(C)[C@@H]3Cc2ccc(OC)cc2)c1)[C@H]1c2cc(O)c(OC)cc2CCN1C"
meas_value = "< 80%"

[[record]]
smiles_entry = "COc1ccc(C[C@@H]2c3cc(Oc4cc(C[C@H]5c6cc(OC)c(OC)cc6CCN5C)ccc4O)c(OC)cc3CCN2C)cc1"
meas_value = "< 80%"

[[record]]
smiles_entry = "COc1ccc(C[C@@H]2c3cc(Oc4cc(C[C@@H]5c6cc(OC)c(OC)cc6CCN5C)ccc4O)c(OC)cc3CCN2C)cc1"
meas_value = "> 80%"


###

# viability at 48 h, 5 µM per entry
Experiment: Cytotoxicity against mouse 3T3-L1 cells assessed as cell viability at 5 uM incubated for 48 hrs by CCK-8 assay relative to control
Type: toxicity, cell-based
Settings: read-out: Activity
experimental.endpoint: viability at 48 h, 5 µM

[[record]]
compound = "COc1ccc(C[C@@H]2c3cc(Oc4cc(C[C@@H]5c6cc(OC)c(OC)cc6CCN5C)ccc4O)c(OC)cc3CCN2C)cc1"
experimental_endpoint = "viability at 48 h, 5 µM"
meas_value = "> 80%"

[[record]]
compound = "CC[C@H](C)C(=O)O[C@H]1C[C@@H](C)C=C2C=C[C@H](C)[C@H](CC[C@@H]3C[C@@H](O)CC(=O)O3)[C@H]21"
experimental_endpoint = "viability at 48 h, 5 µM"
meas_value = "> 80%"

[[record]]
compound = "COc1ccc(C[C@@H]2c3cc(Oc4cc(C[C@@H]5c6cc(O)c(OC)cc6CCN5C)ccc4O)c(OC)cc3CCN2C)cc1"
experimental_endpoint = "viability at 48 h, 5 µM"
meas_value = "> 80%"

[[record]]
compound = "COc1cc2c(cc1O)C(Cc1ccc(O)c(-c3c(O)c(OC)cc4c3C(Cc3ccc(O)cc3)N(C)CC4)c1)N(C)CC2 (configuration not stated)"
experimental_endpoint = "viability at 48 h, 5 µM"
meas_value = "> 80%"

[[record]]
compound = "C=C(c1ccc(O)c(Oc2cc3c(cc2OC)CCN(C)[C@@H]3Cc2ccc(OC)cc2)c1)[C@@H]1c2cc(OC)c(OC)cc2CCN1C"
experimental_endpoint = "viability at 48 h, 5 µM"
meas_value = "> 80%"

[[record]]
compound = "COc1cc2c(cc1OC)[C@@H](Cc1ccc(O)c(Oc3cc4c(cc3OC)CCN(C)[C@@H]4Cc3ccc(O)cc3)c1)N(C)CC2"
experimental_endpoint = "viability at 48 h, 5 µM"
meas_value = "> 80%"

[[record]]
compound = "C=C(c1ccc(O)c(Oc2cc3c(cc2OC)CCN(C)[C@@H]3Cc2ccc(OC)cc2)c1)[C@@H]1c2cc(O)c(OC)cc2CCN1C"
experimental_endpoint = "viability at 48 h, 5 µM"
meas_value = "> 80%"


###

Assay: Cytotoxicity against mouse 3T3-L1 cells assessed as cell viability at 20 uM incubated for 48 hrs by CCK-8 assay relative to control
Format: toxicity, cell-based
Settings: read-out: Activity
# viability at 48 h, 20 µM per entry
experimental.endpoint: viability at 48 h, 20 µM

[[record]]
compound = "COc1cc2c(cc1O)[C@@H](Cc1ccc(O)c(Oc3cc4c(cc3OC)CCN(C)[C@@H]4Cc3ccc(O)cc3)c1)N(C)CC2"
experimental_endpoint = "viability at 48 h, 20 µM"
meas_value = "> 80%"

[[record]]
compound = "COc1cc2c(cc1OC)[C@@H](Cc1ccc(O)c(Oc3cc4c(cc3OC)CCN(C)[C@@H]4Cc3ccc(O)cc3)c1)N(C)CC2"
experimental_endpoint = "viability at 48 h, 20 µM"
meas_value = "> 80%"

[[record]]
compound = "C=C(c1ccc(OC)cc1)[C@@H]1c2cc(Oc3cc(C[C@H]4c5cc(OC)c(OC)cc5CCN4C)ccc3O)c(OC)cc2CCN1C"
experimental_endpoint = "viability at 48 h, 20 µM"
meas_value = "< 80%"

[[record]]
compound = "COc1ccc(C[C@@H]2c3cc(Oc4cc(C[C@@H]5c6cc(OC)c(OC)cc6CCN5C)ccc4O)c(OC)cc3CCN2C)cc1 [NEFERINE]"
experimental_endpoint = "viability at 48 h, 20 µM"
meas_value = "< 80%"


###

Assay: Cytotoxicity against mouse 3T3-L1 cells transfected with Lenti-PPARgamma-Luc reporter assessed as cell viability at 30 uM incubated for 48 hrs by CCK-8 assay relative to control
Format: toxicity, cell-based
Details: read-out: Activity
# viability at 48 h, 30 µM per entry
experimental.endpoint: viability at 48 h, 30 µM

[[record]]
smiles_entry = "COc1cc2c(cc1OC)[C@@H](Cc1ccc(O)c(Oc3cc4c(cc3OC)CCN(C)[C@@H]4Cc3ccc(O)cc3)c1)N(C)CC2"
experimental_endpoint = "viability at 48 h, 30 µM"
meas_value = "< 80%"

[[record]]
smiles_entry = "COc1cc2c(cc1O)[C@@H](Cc1ccc(O)c(Oc3cc4c(cc3OC)CCN(C)[C@@H]4Cc3ccc(O)cc3)c1)N(C)CC2"
experimental_endpoint = "viability at 48 h, 30 µM"
meas_value = "< 80%"


###

Test: Cytotoxicity against mouse 3T3-L1 cells transfected with Lenti-PPARgamma-Luc reporter assessed as cell viability at 3 uM incubated for 48 hrs by CCK-8 assay relative to control
Format: toxicity, cell-based
Details: read-out: Activity
experimental.endpoint: viability at 48 h, 3 µM

[[record]]
smiles_entry = "C=C(c1ccc(O)c(Oc2cc3c(cc2OC)CCN(C)[C@@H]3Cc2ccc(OC)cc2)c1)[C@H]1c2cc(O)c(OC)cc2CCN1C"
experimental_endpoint = "viability at 48 h, 3 µM"
meas_value = "> 80%"

[[record]]
smiles_entry = "COc1ccc(C[C@@H]2c3cc(Oc4cc(C[C@H]5c6cc(OC)c(OC)cc6CCN5C)ccc4O)c(OC)cc3CCN2C)cc1"
experimental_endpoint = "viability at 48 h, 3 µM"
meas_value = "> 80%"

[[record]]
smiles_entry = "C=C(c1ccc(O)c(Oc2cc3c(cc2OC)CCN(C)[C@@H]3Cc2ccc(OC)cc2)c1)[C@H]1c2cc(OC)c(OC)cc2CCN1C"
experimental_endpoint = "viability at 48 h, 3 µM"
meas_value = "> 80%"


These entries and their values trace back to ChEMBL document CHEMBL5385940.
